As shown below, each of these compounds has a reported Recombinant Human LTA4 Hydrolase Assay, % at 25 μM value.
# target.system: recombinant human LTA4 hydrolase (rhLTA4H) (Homo sapiens, UniProt P09960)
# Sequence (P09960 whole entry): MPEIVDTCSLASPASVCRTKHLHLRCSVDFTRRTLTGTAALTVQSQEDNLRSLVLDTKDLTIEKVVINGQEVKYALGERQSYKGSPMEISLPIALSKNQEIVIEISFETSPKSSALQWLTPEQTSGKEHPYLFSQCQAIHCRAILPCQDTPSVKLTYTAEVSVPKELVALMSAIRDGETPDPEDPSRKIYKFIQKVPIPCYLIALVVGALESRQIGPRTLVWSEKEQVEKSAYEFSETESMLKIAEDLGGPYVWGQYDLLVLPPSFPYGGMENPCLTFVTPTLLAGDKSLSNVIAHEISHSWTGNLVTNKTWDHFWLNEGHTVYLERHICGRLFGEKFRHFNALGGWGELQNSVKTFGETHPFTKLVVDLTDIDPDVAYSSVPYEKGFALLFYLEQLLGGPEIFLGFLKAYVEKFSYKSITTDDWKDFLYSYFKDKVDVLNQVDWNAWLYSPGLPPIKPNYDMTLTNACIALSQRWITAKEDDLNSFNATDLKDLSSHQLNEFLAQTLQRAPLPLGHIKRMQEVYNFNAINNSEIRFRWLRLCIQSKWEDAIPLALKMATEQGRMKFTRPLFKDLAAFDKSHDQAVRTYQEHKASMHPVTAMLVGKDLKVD
# test.protocol: Recombinant human LTA4 hydrolase assay for LTA4 hydrolase inhibitor activity
# measurement.setup: at 25 μM
measurement.type: Recombinant Human LTA4 Hydrolase Assay, % at 25 μM

{"smiles.structure": "O=C(O)c1ccc(-c2ccc(OCCN3CCCC3)cc2)cc1", "observed.value": "40% at 25"}
{"smiles.structure": "O=C(O)c1ccc(Oc2ccc(OCCN3CCCC3)cc2)cc1", "observed.value": "52% at 25"}
{"smiles.structure": "Clc1cccc(Cl)c1COc1ccc(OCCN2CCCC2)cc1", "observed.value": "49% at 25"}
{"smiles.structure": "Cc1ccccc1COc1ccc(OCCN2CCCC2)cc1", "observed.value": "4% at 25 μM"}

---

Structures can show the parent of a compound that is named as a salt.
# maps each entry to its melting point

{"molecule": "O=C(O)CCNCCCCOc1ccc(Cc2ccccc2)cc1 [Example 433]", "melting point": "140 to 141 °C"}
{"molecule": "c1ccc(Oc2ccc(NCCN3CCCC3)cc2)cc1 (as salt: HCl) [Example 71, monohydrochloride]", "melting point": "202 to 202.5 °C"}
{"molecule": "O=C(O)CCNCCCOc1ccc(Cc2ccccc2)cc1 [Example 431]", "melting point": "165 to 167 °C"}
{"molecule": "OCCOc1ccc(Oc2ccc(F)cc2)cc1 [Example 161]", "melting point": "78 to 79 °C"}
{"molecule": "CN(CCCOc1ccc(Cc2ccccc2)cc1)CCC(=O)O [Example 434]", "melting point": "113 to 116 °C"}
{"molecule": "C1=CC2CC1CN2CCOc1ccc(Cc2ccccc2)cc1 (stereo not shown) [Example 497]", "melting point": "37 to 38 °C"}
{"molecule": "O=C(O)[C@@H]1CCCN1CCCOc1ccc(Cc2ccccc2)cc1 [Example 430]", "melting point": "165 to 169 °C"}
{"molecule": "NC(=O)NC1CCN(CCOc2ccc(Cc3ccccc3)cc2)C1 (stereo not shown) [Example 453]", "melting point": "132 to 134 °C"}
{"molecule": "Oc1ccc(OCCN2CCCC2)cc1 [Example 199]", "melting point": "113 to 115 °C"}
{"molecule": "Cl.c1ccc(Cc2ccc(SCCN3CCCC3)cc2)cc1 [Example 68]", "melting point": "137 to 139 °C"}

---

# target.system: recombinant human LTA4 hydrolase (rhLTA4H) (Homo sapiens, UniProt P09960)
# test.protocol: Recombinant human LTA4 hydrolase assay for LTA4 hydrolase inhibitor activity
# measurement.setup: Recombinant Human LTA4 Hydrolase Assay IC50 LTA4H, recombinant hLTA4H
pIC50: −log10 of the molar value.
Each entry falls into one class according to its pIC50; the ranges are LOW: < 6; MID: ≥ 6 and < 7; HIGH: ≥ 7

{"compound": "c1ccc(COc2ccc(OCCn3ccc4ncnc-4c3)cc2)cc1", "category": "HIGH"}
{"compound": "NC(=O)C1CCN(CCOc2ccc(Cc3ccc(Cl)cc3)cc2)CC1", "category": "LOW"}
{"compound": "COC(=O)C1CC2CC1CN(CCOc1ccc(Cc3ccccc3)cc1)C2 (stereo not drawn)", "category": "HIGH"}
{"compound": "Fc1ccccc1Cc1ccc(OCCN2CCCC2)cc1", "category": "HIGH"}
{"compound": "c1ccc(Cc2ccc(OCCn3cncc4ncnc3-4)cc2)cc1", "category": "HIGH"}
{"compound": "Fc1cc(Cc2ccccc2)cc(F)c1OCCN1CCCC1", "category": "LOW"}
{"compound": "c1ccc(Cc2ccc3c(c2)CC(Cn2cnc4ncccc42)O3)cc1 (stereo not drawn)", "category": "LOW"}
{"compound": "COC(=O)CCN(C)CCCOc1ccc(Cc2ccccc2)cc1", "category": "HIGH"}
{"compound": "CCOC(=O)C1CCN(CCOc2ccc(Oc3ccccc3)cc2)CC1", "category": "LOW"}
{"compound": "c1ccc(Oc2ccc(OCCn3cnc4ccccc43)cc2)cc1", "category": "LOW"}
{"compound": "c1ccc(Oc2ccc(OCCn3cccc4ncnc3-4)cc2)cc1", "category": "MID"}
{"compound": "Fc1ccc(Oc2ccc(OCCn3cccc4ncnc3-4)cc2)cc1", "category": "MID"}
